- TARGET UNDER TEST: human RARα (Homo sapiens, UniProt P10276)
- Construct: expressed in transfected cells; host or cells: HEK293 cells
- Sequence (P10276 whole entry): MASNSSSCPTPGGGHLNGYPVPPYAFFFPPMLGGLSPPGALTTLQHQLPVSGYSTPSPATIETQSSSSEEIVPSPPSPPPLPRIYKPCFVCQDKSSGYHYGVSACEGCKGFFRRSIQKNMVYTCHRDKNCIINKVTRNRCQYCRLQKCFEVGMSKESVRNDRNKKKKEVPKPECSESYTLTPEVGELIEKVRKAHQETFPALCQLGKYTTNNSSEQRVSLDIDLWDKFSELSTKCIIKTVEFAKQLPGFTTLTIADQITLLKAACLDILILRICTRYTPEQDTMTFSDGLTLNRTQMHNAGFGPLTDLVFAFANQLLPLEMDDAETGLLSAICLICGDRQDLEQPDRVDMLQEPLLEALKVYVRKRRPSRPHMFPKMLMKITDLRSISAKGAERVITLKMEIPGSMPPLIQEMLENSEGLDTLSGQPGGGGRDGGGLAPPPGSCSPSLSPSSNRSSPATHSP
- ASSAY SUMMARY: RARE-luciferase reporter assay in HEK293 cells
- Format: cell-based
- TEST CONDITIONS: HEK293, all-trans-RA set to 100%
METRIC NAME: RARE Activity (%RA at 10 nM) (%RA)
Express the result in %RA but write the number alone.

GET /values?readout=RARE Activity (%RA at 10 nM)&item= C=C(c1ccc(C(=O)O)cc1)c1cc2c(cc1C)C(C)(C)CC2(C)C [Compound 26, reference compound]
3.0

GET /values?readout=RARE Activity (%RA at 10 nM)&item= CCN(c1ccc(C(=O)O)c(F)c1)c1ccc(OCC(C)C)c(C(C)C)c1 [Compound 29]
4.0

GET /values?readout=RARE Activity (%RA at 10 nM)&item= C=C(c1ccc(C(=O)O)cc1)c1ccc2c(c1)C(C)(C)CCC2(C)C [Compound 27, reference compound]
1.5

GET /values?readout=RARE Activity (%RA at 10 nM)&item= C=C(c1ccc(C(=O)O)c(O)c1)c1ccc2c(c1)C(C)(C)CCC2(C)C [Compound 37b]
5.2

GET /values?readout=RARE Activity (%RA at 10 nM)&item= C=C(c1ccc(C(=O)O)c(F)c1)c1ccc2c(c1)C(C)(C)CCC2(C)C [Compound 36]
1.4

GET /values?readout=RARE Activity (%RA at 10 nM)&item= C=C(c1ccc(C(=O)O)c(O)c1)c1cc2c(cc1C)C(C)(C)CCC2(C)C [Compound 37a]
2.9

GET /values?readout=RARE Activity (%RA at 10 nM)&item= Cc1cc2c(cc1C1(c3ncc(C(=O)O)cn3)CC1)C(C)(C)CC2(C)C [Compound 33]
5.9

GET /values?readout=RARE Activity (%RA at 10 nM)&item= CC1(C)CCC(C)(C)c2cc(C3(c4ncc(C(=O)O)cn4)CC3)ccc21 [Compound 35]
5.1
